Catalogue of pKd values
System Name: β-catenin (Homo sapiens)
Protocol Description: KD50 measurement using competitive fluorescence polarization (FP) with labelled TCF4
Format: binding
Experimental Setup: fluorescence polarization, β-catenin; read-out: β-Cat FP KD
pKd: −log10 of the molar value. Where a SMILES comes first, the peptide text is derived from it.

Below, 2 compounds whose answers are already recorded.
CC[C@H](C)[C@H](NC(=O)[C@H](CC(C)C)NC(=O)[C@H](Cc1ccccc1)NC(=O)[C@@H](N)Cc1c[nH]c2ccccc12)C(=O)N[C@H](C(=O)N[C@H](C(=O)N[C@@H](Cc1c[nH]c2ccccc12)C(=O)O)[C@@H](C)O)[C@@H](C)O [compound 100] (H-WFLITTW-OH) : 5.00 to 6.00
CC[C@H](C)[C@H](NC(=O)[C@H](CC(C)C)NC(=O)[C@H](Cc1ccccc1)NC(=O)[C@H](Cc1c[nH]c2ccccc12)NC(=O)[C@H](CCSC)NC(=O)[C@H](CCCNC(=N)N)NC(=O)[C@H](CO)NC(=O)[C@@H](N)CCSC)C(=O)N[C@@H](CO)C(=O)N[C@@H](CO)C(=O)N[C@@H](Cc1c[nH]c2ccccc12)C(=O)NCC(=O)O [compound 54] (H-MSRMWFLISSWG-OH) : 5.00 to 6.00

Moving on to another compound below.
Task: Supply reported pKd belonging to this compound: CC[C@H](C)[C@H](NC(=O)[C@H](CC(C)C)NC(=O)[C@@H](NC(=O)[C@H](Cc1c[nH]c2ccccc12)NC(=O)[C@H](CCSC)NC(=O)[C@@H](N)CCCNC(=N)N)[C@@H](C)CC)C(=O)N[C@@H](CS)C(=O)N[C@@H](Cc1ccccc1)C(=O)N[C@@H](Cc1c[nH]c2ccccc12)C(=O)NCC(=O)O [compound 115] (H-RMWILICFWG-OH)
Output: 5.00 to 6.00

----------
System Name: β-catenin (Homo sapiens, UniProt P35222)
Sequence (P35222 whole entry): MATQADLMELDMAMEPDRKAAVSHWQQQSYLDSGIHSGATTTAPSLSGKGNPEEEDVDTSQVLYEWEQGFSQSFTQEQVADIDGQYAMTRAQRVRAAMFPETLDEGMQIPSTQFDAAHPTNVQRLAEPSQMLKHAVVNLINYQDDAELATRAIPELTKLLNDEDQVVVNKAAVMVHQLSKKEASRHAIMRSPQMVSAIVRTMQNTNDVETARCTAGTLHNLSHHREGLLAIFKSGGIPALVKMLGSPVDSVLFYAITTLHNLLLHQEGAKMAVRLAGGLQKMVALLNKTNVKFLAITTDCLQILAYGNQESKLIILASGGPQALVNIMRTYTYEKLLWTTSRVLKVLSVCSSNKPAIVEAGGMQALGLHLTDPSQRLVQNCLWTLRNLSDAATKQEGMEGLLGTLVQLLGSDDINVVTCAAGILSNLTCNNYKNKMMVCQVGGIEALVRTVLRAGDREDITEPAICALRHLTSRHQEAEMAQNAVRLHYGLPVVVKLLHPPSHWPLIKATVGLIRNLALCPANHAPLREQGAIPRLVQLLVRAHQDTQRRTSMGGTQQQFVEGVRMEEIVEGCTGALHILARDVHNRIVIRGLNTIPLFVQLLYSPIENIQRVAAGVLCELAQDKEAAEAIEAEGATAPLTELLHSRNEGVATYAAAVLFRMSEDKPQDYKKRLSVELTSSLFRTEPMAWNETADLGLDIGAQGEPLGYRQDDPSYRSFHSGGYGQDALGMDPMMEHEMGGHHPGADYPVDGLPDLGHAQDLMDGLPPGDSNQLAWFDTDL
Protocol Description: KD50 measurement using competitive fluorescence polarization (FP) with labelled TCF4
Assay type: binding
Experimental Setup: fluorescence polarization, β-catenin; read-out: β-Cat FP KD
Where a SMILES comes first, the peptide text is derived from it.
Below, each of the compounds is paired with its reported Kd value.

CC[C@H](C)[C@@H]1NC(=O)[C@H](CC(C)C)NC(=O)[C@H](Cc2ccccc2)NC(=O)[C@H](Cc2c[nH]c3ccccc23)NC(=O)[C@@H](N)CCCCNC(=O)CC[C@@H](C(=O)O)NC(=O)[C@H](Cc2c[nH]c3ccccc23)NC(=O)[C@H](Cc2ccccc2)NC(=O)[C@H](CO)NC1=O [compound 226] (HELM PEPTIDE1{K.W.F.L.I.S.F.W.E}$PEPTIDE1,PEPTIDE1,1:R3-9:R3$$$V2.0) : 1 to 10 µM

For the next question, use this compound.
Task: Consider the compound CC[C@H](C)[C@H](NC(=O)[C@H](CC(C)C)NC(=O)[C@@H](NC(=O)[C@H](Cc1c[nH]c2ccccc12)NC(=O)[C@H](CCSC)NC(=O)[C@@H](N)CCCCN)[C@@H](C)CC)C(=O)N[C@@H](CS)C(=O)N[C@@H](Cc1ccccc1)C(=O)N[C@@H](Cc1c[nH]c2ccccc12)C(=O)NCC(=O)O [compound 113] (H-KMWILICFWG-OH) . State its measured Kd.
Output: 1 to 10 µM

Source listed as patent US12441768B2.
